EC50 listing for selected compounds.
# System: Human immunodeficiency virus 1
# ASSAY_EXPLANATION: Antiviral activity against HIV1 LAI in human PBM cells
# Type: functional, organism-based
# MEASUREMENT_CONTEXT: Human immunodeficiency virus 1, LAI, PBMC
Provide the reading as a plain figure in nM.

COMPOUND	TGT	MEASURE	REPORTED_VALUE
Nc1ccn([C@@H]2CS[C@H](CO)O2)c(=O)n1 (single isomer, unassigned) [LAMIVUDINE]	Human immunodeficiency virus 1	EC50	26

Field: next compound
Q. What value of EC50 has been recorded for this entry: Nc1nc(=O)n([C@H]2C=C[C@@H](CO)O2)cc1F [DEXELVUCITABINE]
A. 75
